Reference source for all entries: paper PMC12682127

target: Mycobacterium tuberculosis α-methylacyl-CoA racemase (MCR) (Mycobacterium tuberculosis); experiment: MCR inhibition, colorimetric assay, dose-response curves; assay type: biochemical; design: made in house; settings: pIC50, mean ± SEM, n = 3; MCR 3.12 nM, substrate 96 μM, 10 min preincubation, pH 7.4
Sequence (O06543 whole entry): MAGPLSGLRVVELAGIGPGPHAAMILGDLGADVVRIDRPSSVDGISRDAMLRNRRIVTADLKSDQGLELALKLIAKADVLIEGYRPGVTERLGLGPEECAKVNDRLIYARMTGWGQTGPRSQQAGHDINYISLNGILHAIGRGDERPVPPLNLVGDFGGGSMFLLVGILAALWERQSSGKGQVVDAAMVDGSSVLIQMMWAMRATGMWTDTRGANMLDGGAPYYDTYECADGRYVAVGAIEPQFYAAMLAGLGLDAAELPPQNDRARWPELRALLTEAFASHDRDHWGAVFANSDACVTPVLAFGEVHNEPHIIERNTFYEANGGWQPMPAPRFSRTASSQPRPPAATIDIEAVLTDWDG
MEASUREMENT_LABEL: log10(IC50) (log10 of the value in nM)
Values are log10 of IC50 in nM.

These solved cases illustrate the format of a correct answer.
>  <COMPOUND>
COc1cccc(COc2ccc(SC(C)C(=O)SCCNC(=O)CCNC(=O)C(O)C(C)(C)COP(=O)(O)OP(=O)(O)OCC3OC(n4cnc5c(N)ncnc54)C(O)C3OP(=O)(O)O)cc2)c1 (racemic) [Compound 9]

>  <log10(IC50)>
3.41

$$$$
>  <COMPOUND>
CC(C)COc1cccc(SC(C)C(=O)SCCNC(=O)CCNC(=O)C(O)C(C)(C)COP(=O)(O)OP(=O)(O)OCC2OC(n3cnc4c(N)ncnc43)C(O)C2OP(=O)(O)O)c1 (racemic) [Compound 7]

>  <log10(IC50)>
3.60

$$$$
>  <COMPOUND>
CC(Sc1ccc(OCc2ccccc2)cc1)C(=O)SCCNC(=O)CCNC(=O)C(O)C(C)(C)COP(=O)(O)OP(=O)(O)OCC1OC(n2cnc3c(N)ncnc32)C(O)C1OP(=O)(O)O (racemic) [Compound 8]

>  <log10(IC50)>
3.43

$$$$
>  <COMPOUND>
CC(Sc1cccc(OCc2ccccc2)c1)C(=O)SCCNC(=O)CCNC(=O)C(O)C(C)(C)COP(=O)(O)OP(=O)(O)OCC1OC(n2cnc3c(N)ncnc32)C(O)C1OP(=O)(O)O (racemic) [Compound 2]

>  <log10(IC50)>
2.90

$$$$
>  <COMPOUND>
COc1cccc(COc2cccc(SC(C)C(=O)SCCNC(=O)CCNC(=O)C(O)C(C)(C)COP(=O)(O)OP(=O)(O)OCC3OC(n4cnc5c(N)ncnc54)C(O)C3OP(=O)(O)O)c2)c1 (racemic) [Compound 3]

>  <log10(IC50)>
2.53

$$$$
>  <COMPOUND>
CC(C)COc1ccc(SC(C)C(=O)SCCNC(=O)CCNC(=O)C(O)C(C)(C)COP(=O)(O)OP(=O)(O)OCC2OC(n3cnc4c(N)ncnc43)C(O)C2OP(=O)(O)O)cc1 (racemic) [Compound 13]

>  <log10(IC50)>
3.27

$$$$

For every listed record, write down its log10(IC50).
1. CC(Sc1cccc(OCCc2cccc(C(F)(F)F)c2)c1)C(=O)SCCNC(=O)CCNC(=O)C(O)C(C)(C)COP(=O)(O)OP(=O)(O)OCC1OC(n2cnc3c(N)ncnc32)C(O)C1OP(=O)(O)O (racemic) [Compound 6]
2. CC(Sc1ccc(OCCc2cccc(C(F)(F)F)c2)cc1)C(=O)SCCNC(=O)CCNC(=O)C(O)C(C)(C)COP(=O)(O)OP(=O)(O)OCC1OC(n2cnc3c(N)ncnc32)C(O)C1OP(=O)(O)O (racemic) [Compound 12]
3. CCCCCOc1ccc(SC(C)C(=O)SCCNC(=O)CCNC(=O)C(O)C(C)(C)COP(=O)(O)OP(=O)(O)OCC2OC(n3cnc4c(N)ncnc43)C(O)C2OP(=O)(O)O)cc1 (racemic) [Compound 14]

Response given:
[2.22, 2.93, 2.91]
